Ref: PubChem BioAssay (NCI)

Test system: NCI-H322M lung
Test: NCI-60 one-dose screen, 48 h (100 = growth as untreated, 0 = no growth, -100 = all killed)
Settings: 10 µM unless noted
Method: Growth inhibition of the NCI-H322M human Non-Small Cell Lung tumor cell line is measured as a screen for anti-cancer activity. Cells are grown in 96 well plates and exposed to the test compound for 48 hours. Compounds are tested at a single concentration, which is 10^-5 M for most compounds. The reported endpoint is percent growth (GI% or GIPRCNT), where numbers from 0 - 100% represent growth inhibition, and numbers from -100% - 0 represent cell death. […]
About 83,000 compounds went through this panel and 20% of them were active in at least one assay; those are over-represented in the sample as a whole.
Test Readout: growth (%)

1) COc1ncnc2[nH]cc(CN3CCN(c4ccc(F)cc4)CC3)c12
107
2) C=C1C(=O)O[C@H]2[C@H]1CC/C(COC(=O)N[C@@H](Cc1c[nH]c3ccccc13)C(=O)OC)=C\CC[C@@]1(C)O[C@@H]21
80.5
3) COc1cc(/C=C/c2cc(/C=C/c3ccc(O)c(OC)c3)n(C(=O)c3ccccc3Br)n2)ccc1O
39.5
4) COc1cc(-c2nn(C(=O)NCCN3CCN(C)CC3)cc2-c2ccncc2)ccc1Cl
106

###

Test system: UACC-62 melanoma
Test: NCI-60 one-dose screen, 48 h
Conditions: 10 µM unless noted
Compounds without any hit were thinned out: in the full panel of roughly 83,000, 20% have a hit. Active and inactive are the calls of the source. The calls were made as follows: active = growth percent below 10; inactive = the rest.
Classes used: yes = active, no = inactive

1. CCCCCc1c(C)[nH]c(/C=C2\N=C(c3ccc[nH]3)C=C2Oc2ccc(OC)cc2)c1C
yes
2. COC(=O)c1ccc2c(c1)nc(-c1cc3ccccc3[nH]c1=O)n2-c1cc(C(C)(C)C)[nH]n1
no
3. COc1cc(C)c(Cl)cc1C1=NN(c2ccc(S(N)(=O)=O)cc2)C(/C=C/c2ccccc2)C1 (centres undefined)
no
4. Cc1ccc(C(=O)CC(=O)C(F)(F)C(F)(F)C(F)(F)F)s1
no

###

System: OVCAR-3 ovarian
Test: NCI-60 one-dose screen, 48 h
Conditions: 10 µM unless noted
Compounds without any hit were thinned out: in the full panel of roughly 83,000, 20% have a hit. Calls of active or inactive are those of the source. Rule for the calls: active = growth percent below 10; inactive = the rest.
Outcomes: active, inactive

1. N/C(=N\O)c1ncc(-c2ccc(C(F)(F)F)cc2)c(NC2CCCCCC2)n1
active
2. c1ccc2c(N=NSc3ncnc4nc[nH]c34)c3ccccc3nc2c1
active
3. Cc1cc(C#Cc2ccc(C(C)(C)C)cc2)ccc1-n1c(/C=C/c2c(Cl)cccc2Cl)nc2ccccc2c1=O
inactive
4. CN(C)CCNC(=O)n1cc(-c2ccncc2)c(-c2cc(O)cc(Cl)c2)n1
inactive
5. CCOC(=O)C(Cc1ccccc1)n1c(O)c(/C=N/c2ncc(Cc3ccc(Cl)cc3Cl)s2)sc1=S (configuration not stated)
inactive
6. O=C1/C(=C/N2N=C(c3ccc(Cl)cc3)CC2c2ccccc2O)SC(=S)N1c1cccc(C(F)(F)F)c1 (configuration not stated)
inactive
7. Nc1c(N)c2ccccc2c2ccccc12
inactive
8. CC(=O)Nc1ccc(/C=N/N2CCCCCC2)cc1
inactive
9. O=C(CC(=O)c1ccccc1F)Nc1ccc([N+](=O)[O-])cc1
inactive
10. CNCCCn1c2c(c3ccc(Cl)cc3c1=O)C(=O)c1cc(OC)cnc1-2
inactive
11. Cc1ccc(NC(=O)c2cc(NCc3cc(O)ccc3O)ccc2O)cc1
inactive
12. Cc1ccc(C(CN(C)C)C(=O)c2ccccc2)cc1 (configuration not stated)
active
